molecular target: EGFR (HCC827 cells) (Homo sapiens, UniProt P00533, DEL746-750); construct: endogenous in cells; host or cells: HCC827; assay: EGFR degradation HTRF assay, HCC827 cells; type: cell-based; settings: HCC827, 16h treatment
Sequence (P00533 with tags, fused parts or gaps DEL746-750): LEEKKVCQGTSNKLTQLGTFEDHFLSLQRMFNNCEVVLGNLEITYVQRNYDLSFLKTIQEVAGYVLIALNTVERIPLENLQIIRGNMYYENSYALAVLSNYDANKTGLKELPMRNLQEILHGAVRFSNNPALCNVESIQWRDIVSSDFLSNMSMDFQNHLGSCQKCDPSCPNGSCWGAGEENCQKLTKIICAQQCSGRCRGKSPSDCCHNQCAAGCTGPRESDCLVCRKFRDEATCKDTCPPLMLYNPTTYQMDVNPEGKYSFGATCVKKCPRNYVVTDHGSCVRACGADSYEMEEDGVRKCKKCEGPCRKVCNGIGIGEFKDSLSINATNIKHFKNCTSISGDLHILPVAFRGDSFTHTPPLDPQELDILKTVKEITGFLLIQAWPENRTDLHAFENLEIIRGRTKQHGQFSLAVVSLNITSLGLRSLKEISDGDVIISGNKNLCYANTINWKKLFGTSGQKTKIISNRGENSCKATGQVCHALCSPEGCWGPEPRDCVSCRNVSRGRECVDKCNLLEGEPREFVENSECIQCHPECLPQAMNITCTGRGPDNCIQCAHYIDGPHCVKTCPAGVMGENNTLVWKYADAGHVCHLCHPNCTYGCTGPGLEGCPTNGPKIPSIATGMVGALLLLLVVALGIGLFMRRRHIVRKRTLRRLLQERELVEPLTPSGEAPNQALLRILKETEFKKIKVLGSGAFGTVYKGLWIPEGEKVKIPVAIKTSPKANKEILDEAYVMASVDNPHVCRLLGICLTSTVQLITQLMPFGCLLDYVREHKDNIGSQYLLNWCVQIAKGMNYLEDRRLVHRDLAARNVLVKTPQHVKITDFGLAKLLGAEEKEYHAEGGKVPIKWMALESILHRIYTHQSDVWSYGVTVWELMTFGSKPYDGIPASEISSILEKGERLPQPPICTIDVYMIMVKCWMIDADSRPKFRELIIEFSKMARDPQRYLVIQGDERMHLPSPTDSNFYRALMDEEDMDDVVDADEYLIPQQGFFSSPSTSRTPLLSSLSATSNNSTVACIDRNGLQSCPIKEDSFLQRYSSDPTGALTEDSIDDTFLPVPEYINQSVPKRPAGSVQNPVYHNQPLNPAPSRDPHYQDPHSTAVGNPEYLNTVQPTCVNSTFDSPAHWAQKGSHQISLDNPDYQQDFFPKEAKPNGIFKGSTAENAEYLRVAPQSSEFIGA
// values below are reported DC50
State the answer as a number, implicitly in nM.

Before answering, review these 3 worked examples.
{"molecule": "COc1cc(N2CCC(N(C)CC3CCN(c4ccc(N5CCC(=O)NC5=O)c(C)c4)CC3)CC2)c(C)cc1Nc1ncc(Br)c(Nc2ccc3nccnc3c2P(C)(C)=O)n1 [Example 83]", "DC50, nM": 20.3}
{"molecule": "COc1cc(N2CCN(CCC3CCN(c4ccc(N5CCC(=O)NC5=O)cc4)CC3)CC2)c(C)cc1Nc1ncc(Br)c(Nc2ccc3nccnc3c2P(C)(C)=O)n1 [Example 94]", "DC50, nM": 32.2}
{"molecule": "CCc1cc(Nc2ncc(Br)c(Nc3ccc4nccnc4c3P(C)(C)=O)n2)c(OC)cc1N1CCC(N2CCN(C(=O)CCC3CN(c4ccc5c(c4)C(=O)N(C4CCC(=O)NC4=O)C5=O)C3)CC2)CC1 (stereo not shown) [Example 57]", "DC50, nM": 4.8}

Now for the molecule whose DC50 we want.
Which measured DC50 value corresponds to CCc1cc(Nc2ncc(Br)c(Nc3ccc4nccnc4c3P(C)(C)=O)n2)c(OC)cc1N1CCC(N2CCN(CCc3ccc(C4CCC(=O)NC4=O)c(F)c3)CC2)CC1 (stereo not shown) [Example 5] ?
2.56

---

system: EGFR Del19/T790M/C797S (BaF3-DTC cells); assay: EGFR degradation HTRF assay, BaF3-DTC cells; type: cell-based; details: 16h treatment, maximum percentage of degradation
Criterion: DTC Dmax (%) strictly less than 90%. Met: 1 (yes). Not met: 0 (no).

See these solved cases before continuing.
{"compound": "CCc1cc(Nc2ncc(Br)c(Nc3ccc4nccnc4c3P(C)(C)=O)n2)c(OC)cc1N1CCC(N2CCN(CCCCc3cc(F)c(C4CCC(=O)NC4=O)c(F)c3)CC2)CC1 (stereo not drawn)", "category": "0 (no)"}
{"compound": "CCc1cc(Nc2ncc(Br)c(Nc3ccc4nccnc4c3P(C)(C)=O)n2)c(OC)cc1N1CCC(N2CCN(C(=O)[C@H]3C[C@H](N(C)c4ccc(C5CCC(=O)NC5=O)cc4)C3)CC2)CC1 (stereo partly drawn)", "category": "1 (yes)"}
{"compound": "CCc1cc(Nc2ncc(Br)c(Nc3ccc4nc(C)ccc4c3P(C)(C)=O)n2)c(OC)cc1N1CCC(N2CCN(C(=O)C3CN(CCc4cc(F)c(C5CCC(=O)NC5=O)c(F)c4)C3)CC2)CC1 (stereo not drawn)", "category": "1 (yes)"}

--- query ---
DTC Dmax (%) under 90%? Item: COc1cc(N2CCC(N3CCN(CCC4CCN(c5cc(F)c(C6CCC(=O)NC6=O)c(F)c5)CC4)CC3)CC2)c(C)cc1Nc1ncc(Br)c(Nc2ccc3nccnc3c2P(C)(C)=O)n1 (stereo not drawn)
0 (no)

---

molecular target: EGFR L858R/T790M (H1975-clone #36, homozygous) (Homo sapiens, UniProt P00533, L858R/T790M); construct: designed to specifically target WT EGFR but preserve the L858R/T790M copy; host or cells: H1975-clone #36; experiment: EGFR degradation HTRF assay, H1975-clone #36 cells; type: cell-based; conditions: H1975 #36, 16h treatment
Sequence (P00533 25-1210 T790M/L858R): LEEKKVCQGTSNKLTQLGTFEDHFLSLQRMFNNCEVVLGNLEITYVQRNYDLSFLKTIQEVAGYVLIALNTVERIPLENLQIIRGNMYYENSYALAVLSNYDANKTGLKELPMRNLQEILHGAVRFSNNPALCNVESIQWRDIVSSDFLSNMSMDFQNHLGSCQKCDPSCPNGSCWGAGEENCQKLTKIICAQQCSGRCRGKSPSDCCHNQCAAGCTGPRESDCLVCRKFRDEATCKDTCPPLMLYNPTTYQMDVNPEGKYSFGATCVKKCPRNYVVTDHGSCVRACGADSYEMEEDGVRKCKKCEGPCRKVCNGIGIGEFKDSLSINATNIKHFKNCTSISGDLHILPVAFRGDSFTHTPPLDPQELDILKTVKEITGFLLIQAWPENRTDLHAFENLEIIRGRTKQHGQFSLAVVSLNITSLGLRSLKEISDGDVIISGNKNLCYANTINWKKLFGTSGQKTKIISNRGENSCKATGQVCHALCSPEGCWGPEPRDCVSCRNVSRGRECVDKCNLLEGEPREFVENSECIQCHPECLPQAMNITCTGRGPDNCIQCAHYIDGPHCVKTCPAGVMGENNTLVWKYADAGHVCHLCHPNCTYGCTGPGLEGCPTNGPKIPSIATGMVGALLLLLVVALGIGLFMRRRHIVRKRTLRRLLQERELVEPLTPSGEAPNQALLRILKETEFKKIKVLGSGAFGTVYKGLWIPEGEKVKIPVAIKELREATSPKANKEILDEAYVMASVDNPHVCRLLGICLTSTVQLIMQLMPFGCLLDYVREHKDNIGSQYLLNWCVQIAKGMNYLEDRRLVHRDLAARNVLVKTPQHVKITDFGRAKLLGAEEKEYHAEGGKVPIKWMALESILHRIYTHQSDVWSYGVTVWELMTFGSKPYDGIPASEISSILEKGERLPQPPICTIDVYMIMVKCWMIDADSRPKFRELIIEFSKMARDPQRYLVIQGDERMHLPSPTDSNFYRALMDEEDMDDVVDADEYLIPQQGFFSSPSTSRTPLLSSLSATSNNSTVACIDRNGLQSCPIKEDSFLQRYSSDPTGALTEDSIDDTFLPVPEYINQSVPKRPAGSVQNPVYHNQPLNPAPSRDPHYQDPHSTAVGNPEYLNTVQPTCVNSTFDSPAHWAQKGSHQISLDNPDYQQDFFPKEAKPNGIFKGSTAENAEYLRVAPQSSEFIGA
// values below are reported DC50

{"compound": "CCc1cc(Nc2ncc(Br)c(Nc3ccc4nccnc4c3P(C)(C)=O)n2)c(OC)cc1N1CCC(N2CCN(CCCCCc3ccc(C4CCC(=O)NC4=O)cc3)CC2)CC1 (stereo not drawn)", "metric": "DC50", "result": "> 0.156 µM"}
{"compound": "CCc1cc(Nc2ncc(Br)c(Nc3ccc4nccnc4c3P(C)(C)=O)n2)c(OC)cc1N1CCC(N2CCN(CCC3CCN(c4ccc(N5CCC(=O)NC5=O)cc4)CC3)CC2)CC1", "metric": "DC50", "result": "> 10 µM"}

Now for the compound whose DC50 we want.
Which measured DC50 value corresponds to CCc1cc(Nc2ncc(Br)c(Nc3ccc4nccnc4c3P(C)(C)=O)n2)c(OC)cc1N1CCC(N2CCN(CC3CCN(c4ccc(C5CCC(=O)NC5=O)cc4)CC3)CC2)CC1 (stereo not drawn) ?
> 10 µM
